The origin of these recorded values is paper PMC11356571.

- Method: Metabolic stability in mouse hepatocytes
- Format: in vitro ADME
- Measurement Setup: cryopreserved hepatocytes, scaled from Clint
Outcome Measure: CLint scaled at 2 µM

> print(dat)
                                   compound       outcome.measure  observed.result
1  NCC(N)C(=O)Nc1ccc(-c2nc3ccccc3s2)cc1 (stereo not shown) [ETN101]  CLint scaled at 2 µM      8.15 L/h/kg

---

We begin with a simple list: items and their reported Relative peak area (%).
- Test system: mouse hepatocytes
- Method: Metabolite characterization in mouse hepatocytes
- Format: in vitro ADME
- Measurement Setup: mouse hepatocyte 1 h incubates of ETN101; ND:<1.2E+05 peak area
Outcome Measure: Relative peak area (%)

> print(dat)
                                   compound  qualifier.operator  observed.result
1           CC(=O)Nc1ccc(-c2nc3ccccc3s2)cc1                   =              0.9
2                 Nc1ccc(-c2nc3ccccc3s2)cc1                   =             71.8
3                Nc1ccc(-c2nc3ccccc3s2)cc1O                   <              0.1
4  NCC(N)C(=O)Nc1ccc(-c2nc3ccccc3s2)cc1 (centres unmarked)                   =             26.8
5  O=C(O)[C@H]1O[C@@H](Nc2ccc(-c3nc4ccccc4s3)cc2)[C@H](O)[C@@H](O)[C@@H]1O [M9, CJM-126 glucuronide]                   <              0.1

---

- Method: Metabolic stability in monkey hepatocytes
- Format: in vitro ADME
- Measurement Setup: cryopreserved hepatocytes, scaled from Clint
- Method: Cryopreserved hepatocytes were carefully thawed in a 37 °C water bath for approximately 1 min, and transferred to a tube containing pre-warmed thawing medium. The supernatants were removed and the pellets were resuspended in KHB at a final cell density of 1 × 10^6 cells/mL, based on hemocytometer counting using trypan blue exclusion. […] The disappearance rate (k) of ETN101 was calculated by determined peak area ratio of ETN101 to IS over incubation period. […]
Outcome Measure: CLint scaled at 2 µM (mL/min/kg)

> print(dat)
                                   compound  unit.of.measure  observed.result
1  NCC(N)C(=O)Nc1ccc(-c2nc3ccccc3s2)cc1 (stereo not shown)        mL/min/kg             45.7

---

We begin with a simple list: items and their reported Relative peak area (%).
- Tested on: human hepatocytes
- Method: Metabolite characterization in human hepatocytes
- Format: in vitro ADME
- Measurement Setup: human hepatocyte 1 h incubates of ETN101; ND:<1.2E+05 peak area
Outcome Measure: Relative peak area (%)

> print(dat)
                                   compound          tested.on  observed.result
1                Nc1ccc(-c2nc3ccccc3s2)cc1O  human hepatocytes              0.1
2  O=C(O)[C@H]1O[C@@H](Nc2ccc(-c3nc4ccccc4s3)cc2)[C@H](O)[C@@H](O)[C@@H]1O [M9, CJM-126 glucuronide]  human hepatocytes              0.1
3           CC(=O)Nc1ccc(-c2nc3ccccc3s2)cc1  human hepatocytes              0.3
4                 Nc1ccc(-c2nc3ccccc3s2)cc1  human hepatocytes             21.0
5  NCC(N)C(=O)Nc1ccc(-c2nc3ccccc3s2)cc1 (centres unmarked)  human hepatocytes             76.4

---

- Test system: monkey hepatocytes
- Method: Metabolite characterization in monkey hepatocytes
- Type: in vitro ADME
- Measurement Setup: monkey hepatocyte 1 h incubates of ETN101; ND:<1.2E+05 peak area
We begin with a simple list: items and their reported Relative peak area (%).
Outcome Measure: Relative peak area (%)

> print(dat)
                                   compound  unit.of.measure  qualifier.operator  observed.result
1           CC(=O)Nc1ccc(-c2nc3ccccc3s2)cc1                %                   =              5.8
2                 Nc1ccc(-c2nc3ccccc3s2)cc1                %                   =             21.5
3  O=C(O)[C@H]1O[C@@H](Nc2ccc(-c3nc4ccccc4s3)cc2)[C@H](O)[C@@H](O)[C@@H]1O [M9, CJM-126 glucuronide]                %                   <              0.1
4                Nc1ccc(-c2nc3ccccc3s2)cc1O                %                   <              0.1
5  NCC(N)C(=O)Nc1ccc(-c2nc3ccccc3s2)cc1 (centres unmarked)                %                   =             69.0

---

- Method: Metabolic stability in rat hepatocytes
- Assay type: in vitro ADME
- Measurement Setup: cryopreserved hepatocytes, 45 min incubation at 37 °C
Outcome Measure: half-life at 2 µM (h)

> print(dat)
                                   compound    outcome.measure  unit.of.measure  observed.result
1  NCC(N)C(=O)Nc1ccc(-c2nc3ccccc3s2)cc1 (stereo not shown)  half-life at 2 µM                h             1.15

---

- Tested on: dog hepatocytes
- Method: Metabolite characterization in dog hepatocytes
- Format: in vitro ADME
- Measurement Setup: dog hepatocyte 1 h incubates of ETN101; ND:<1.2E+05 peak area
We begin with a simple list: items and their reported Relative peak area (%).
Outcome Measure: Relative peak area (%)

> print(dat)
                                   molecule  unit.of.measure  qualifier.operator  observed.result
1  O=C(O)[C@H]1O[C@@H](Nc2ccc(-c3nc4ccccc4s3)cc2)[C@H](O)[C@@H](O)[C@@H]1O [M9, CJM-126 glucuronide]                %                   =              0.5
2                Nc1ccc(-c2nc3ccccc3s2)cc1O                %                   <              0.1
3  NCC(N)C(=O)Nc1ccc(-c2nc3ccccc3s2)cc1 (stereo not shown)                %                   =             39.5
4                 Nc1ccc(-c2nc3ccccc3s2)cc1                %                   =             55.9

---

- Method: Metabolic stability in mouse hepatocytes
- Type: in vitro ADME
- Measurement Setup: cryopreserved hepatocytes, 45 min incubation at 37 °C
Outcome Measure: half-life at 2 µM (min)

> print(dat)
                                   compound  unit.of.measure  observed.result
1  NCC(N)C(=O)Nc1ccc(-c2nc3ccccc3s2)cc1 (stereo not shown) [ETN101]              min              120

---

- Method: Metabolic stability in rat hepatocytes
- Assay type: in vitro ADME
- Measurement Setup: cryopreserved hepatocytes, scaled from Clint
Outcome Measure: CLint scaled at 2 µM (mL/min/kg)

> print(dat)
                                   compound       outcome.measure  unit.of.measure  observed.result
1  NCC(N)C(=O)Nc1ccc(-c2nc3ccccc3s2)cc1 (stereo not shown)  CLint scaled at 2 µM        mL/min/kg             94.1

---

- Method: Metabolic stability in human hepatocytes
- Assay type: in vitro ADME
- Measurement Setup: cryopreserved hepatocytes, 45 min incubation at 37 °C
Outcome Measure: hepatocyte CLint at 2 µM

> print(dat)
                                   compound        observed.result
1  NCC(N)C(=O)Nc1ccc(-c2nc3ccccc3s2)cc1 (stereo not shown) [ETN101]  18.5 µL/min/1e6 cells

---

- Method: Metabolic stability in rat hepatocytes
- Type: in vitro ADME
- Measurement Setup: cryopreserved hepatocytes, 45 min incubation at 37 °C
Outcome Measure: hepatocyte CLint at 2 µM

> print(dat)
                                   compound           outcome.measure        observed.result
1  NCC(N)C(=O)Nc1ccc(-c2nc3ccccc3s2)cc1 (stereo not shown)  hepatocyte CLint at 2 µM  20.1 µL/min/1e6 cells

---

- Method: Metabolic stability in monkey hepatocytes
- Assay type: in vitro ADME
- Measurement Setup: cryopreserved hepatocytes, 45 min incubation at 37 °C
- Experimental: Cryopreserved hepatocytes were carefully thawed in a 37 °C water bath for approximately 1 min, and transferred to a tube containing pre-warmed thawing medium. The supernatants were removed and the pellets were resuspended in KHB at a final cell density of 1 × 10^6 cells/mL, based on hemocytometer counting using trypan blue exclusion. […] The disappearance rate (k) of ETN101 was calculated by determined peak area ratio of ETN101 to IS over incubation period. […]
Outcome Measure: half-life at 2 µM (h)

> print(dat)
                                   compound  observed.result
1  NCC(N)C(=O)Nc1ccc(-c2nc3ccccc3s2)cc1 (stereo not shown)             1.22
